Tested On: hCST (Homo sapiens)
Sequence (P78382 1-337): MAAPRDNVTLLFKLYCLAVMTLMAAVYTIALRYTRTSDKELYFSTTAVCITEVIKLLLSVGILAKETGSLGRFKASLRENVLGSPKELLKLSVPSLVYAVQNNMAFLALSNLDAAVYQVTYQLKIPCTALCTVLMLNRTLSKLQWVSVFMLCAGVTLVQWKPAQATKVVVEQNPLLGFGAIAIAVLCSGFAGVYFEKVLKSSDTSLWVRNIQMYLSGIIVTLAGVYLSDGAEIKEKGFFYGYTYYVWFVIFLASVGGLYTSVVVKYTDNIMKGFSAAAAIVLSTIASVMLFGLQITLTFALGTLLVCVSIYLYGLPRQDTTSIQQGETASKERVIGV
Readout Name: Kd (µM)
Answers are plain numbers, in µM.

| Cpd Smiles | Assay Value |
| --- | --- |
| Nc1ccn([C@@H]2O[C@H](COP(=O)(O)O)[C@@H](O)[C@H]2O)c(=O)n1 | 40 |

Would you kindly look at the next entry?
Asked: Could you share which Kd value was measured for `CC(=O)N[C@H]1[C@H]([C@H](O)[C@H](O)CO)O[C@](OP(=O)(O)OC[C@H]2O[C@@H](n3ccc(N)nc3=O)[C@H](O)[C@@H]2O)(C(=O)O)C[C@@H]1O` ?
Given back: 1500

----------
Tested On: CSTZM (wildtype sequence) (Zea mays)
Sequence (B4FZ94 1-322): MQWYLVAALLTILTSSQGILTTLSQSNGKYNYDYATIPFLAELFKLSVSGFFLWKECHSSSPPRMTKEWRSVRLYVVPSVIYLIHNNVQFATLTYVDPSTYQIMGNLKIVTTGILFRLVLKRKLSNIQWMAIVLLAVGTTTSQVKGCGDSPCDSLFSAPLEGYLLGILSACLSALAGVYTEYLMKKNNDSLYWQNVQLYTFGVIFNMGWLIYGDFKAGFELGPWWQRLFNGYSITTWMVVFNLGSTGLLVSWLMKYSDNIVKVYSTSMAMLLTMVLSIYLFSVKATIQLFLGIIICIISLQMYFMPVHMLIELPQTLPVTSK
Please go through the items and note down their pKd.
Give bare numbers, as −log10 of the molar value.

| Cpd Smiles | Readout Name | Assay Value |
| --- | --- | --- |
| Nc1ccn([C@@H]2O[C@H](COP(=O)(O)O)[C@@H](O)[C@H]2O)c(=O)n1 | pKd | 4.40 |

Would you kindly look at the next entry?
Asked: Could you share which pKd value was measured for `CC(=O)N[C@H]1[C@H]([C@H](O)[C@H](O)CO)O[C@](OP(=O)(O)OC[C@H]2O[C@@H](n3ccc(N)nc3=O)[C@H](O)[C@@H]2O)(C(=O)O)C[C@@H]1O` ?
Given back: 2.51

Values were extracted from paper doi:10.1101/580449v1.
